Data credit: ChEMBL document CHEMBL1147590

test system: A549; experiment: In vitro rate of inhibition of A-549 tumor cell growth at 10E-5 mol/L; assay type: functional, Homo sapiens; conditions: at 10 µM
If the reported Rate of inhibition equals or exceeds 4%, assign Condition met. If not, assign Condition not met.

>  <compound>
CC1=NN(C(=O)OCc2ccccc2)C(C)N=N1 (centres undefined)

>  <assayed.target>
A549

>  <class.assignment>
Condition not met

$$$$
>  <compound>
CC1=NN(C(=O)Nc2cccc(N(C)C)c2)C(C)=NN1C(=O)Nc1cccc(N(C)C)c1

>  <assayed.target>
A549

>  <class.assignment>
Condition met

$$$$
>  <compound>
CC(=O)N1N=C(c2ccccc2)NN=C1c1ccccc1

>  <assayed.target>
A549

>  <class.assignment>
Condition not met

$$$$
>  <compound>
CC1=NN(C(=O)NCc2ccccc2)C(C)=NN1C(=O)NCc1ccccc1

>  <assayed.target>
A549

>  <class.assignment>
Condition met

$$$$
>  <compound>
COC(=O)N1C(c2ccccc2)=NN=C(c2ccccc2)N1C(=O)OC

>  <assayed.target>
A549

>  <class.assignment>
Condition not met

$$$$
>  <compound>
FC(F)(F)c1ccc(-c2nnc(-c3ccc(C(F)(F)F)cc3)nn2)cc1

>  <assayed.target>
A549

>  <class.assignment>
Condition not met

$$$$
>  <compound>
CCCCC1NN(C(C)=O)C(CCCC)NN1C(C)=O (centres undefined)

>  <assayed.target>
A549

>  <class.assignment>
Condition met

$$$$
>  <compound>
CCCC1=NNC(CCC)N=N1 (centres undefined)

>  <assayed.target>
A549

>  <class.assignment>
Condition not met

$$$$
>  <compound>
CCCC1=NN(C(=O)Nc2cccc(Cl)c2)C(CCC)=NN1C(=O)Nc1cccc(Cl)c1

>  <assayed.target>
A549

>  <class.assignment>
Condition met

$$$$
>  <compound>
CC1=NN(C(=O)Nc2cccc(C)c2)C(C)=NN1C(=O)Nc1cccc(C)c1

>  <assayed.target>
A549

>  <class.assignment>
Condition met

$$$$
>  <compound>
Clc1ccc(Cc2nnc(Cc3ccc(Cl)cc3)nn2)cc1

>  <assayed.target>
A549

>  <class.assignment>
Condition met

$$$$
>  <compound>
CCOC(=O)c1cccc(NC(=O)N2N=C(C)N(C(=O)Nc3cccc(C(=O)OCC)c3)N=C2C)c1

>  <assayed.target>
A549

>  <class.assignment>
Condition met

$$$$
>  <compound>
c1ccc(C2=NNC(c3ccccc3)=NN2)cc1

>  <assayed.target>
A549

>  <class.assignment>
Condition met

$$$$
>  <compound>
COC(=O)N1N=C(C)N=NC1C (centres undefined)

>  <assayed.target>
A549

>  <class.assignment>
Condition met

$$$$
>  <compound>
Clc1cccc(-c2nnc(-c3cccc(Cl)c3)nn2)c1

>  <assayed.target>
A549

>  <class.assignment>
Condition not met

$$$$
>  <compound>
CCCCCOC(=O)N1N=C(CCC)N=NC1CCC (centres undefined)

>  <assayed.target>
A549

>  <class.assignment>
Condition not met

$$$$
>  <compound>
CC1=NN(C(=O)Nc2ccccc2C)C(C)=NN1C(=O)Nc1ccccc1C

>  <assayed.target>
A549

>  <class.assignment>
Condition not met

$$$$
>  <compound>
CC(C)C(=O)N1N=C(c2ccccc2)NN=C1c1ccccc1

>  <assayed.target>
A549

>  <class.assignment>
Condition met

$$$$
>  <compound>
CCCC1=NN(C(=O)OCCC(C)C)C(CCC)N=N1 (centres undefined)

>  <assayed.target>
A549

>  <class.assignment>
Condition not met

$$$$
>  <compound>
CC1=NN(C(=O)Nc2cccc([N+](=O)[O-])c2)C(C)=NN1C(=O)Nc1cccc([N+](=O)[O-])c1

>  <assayed.target>
A549

>  <class.assignment>
Condition not met

$$$$
>  <compound>
CC1=NN(C(=O)Oc2ccccc2)C(C)N=N1 (centres undefined)

>  <assayed.target>
A549

>  <class.assignment>
Condition not met

$$$$
>  <compound>
CC1=NNC(C)N=N1 (centres undefined)

>  <assayed.target>
A549

>  <class.assignment>
Condition met

$$$$
>  <compound>
CCOC(=O)N1C(c2ccccc2)=NN=C(c2ccccc2)N1C(=O)OCC

>  <assayed.target>
A549

>  <class.assignment>
Condition met

$$$$
